The origin of these recorded values is patent US20250367166A1.

Below, each entry is listed with its recorded EC50.
molecular target: TLR1/TLR2 (Homo sapiens, UniProt O60603+Q15399); assay: TNF-α release from PMA-differentiated human THP-1 cells (ELISA); settings: read-out: EC50 (nM) (THP-1): EC50 TNF-α release from human THP-1 cells; Table 6;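 further: cells exposed to graded compound concentrations for 4 h, TNF-α quantified in supernatant, LPS as positive and DMSO as negative control, values are duplicate means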
Sequence (Q15399 25-786): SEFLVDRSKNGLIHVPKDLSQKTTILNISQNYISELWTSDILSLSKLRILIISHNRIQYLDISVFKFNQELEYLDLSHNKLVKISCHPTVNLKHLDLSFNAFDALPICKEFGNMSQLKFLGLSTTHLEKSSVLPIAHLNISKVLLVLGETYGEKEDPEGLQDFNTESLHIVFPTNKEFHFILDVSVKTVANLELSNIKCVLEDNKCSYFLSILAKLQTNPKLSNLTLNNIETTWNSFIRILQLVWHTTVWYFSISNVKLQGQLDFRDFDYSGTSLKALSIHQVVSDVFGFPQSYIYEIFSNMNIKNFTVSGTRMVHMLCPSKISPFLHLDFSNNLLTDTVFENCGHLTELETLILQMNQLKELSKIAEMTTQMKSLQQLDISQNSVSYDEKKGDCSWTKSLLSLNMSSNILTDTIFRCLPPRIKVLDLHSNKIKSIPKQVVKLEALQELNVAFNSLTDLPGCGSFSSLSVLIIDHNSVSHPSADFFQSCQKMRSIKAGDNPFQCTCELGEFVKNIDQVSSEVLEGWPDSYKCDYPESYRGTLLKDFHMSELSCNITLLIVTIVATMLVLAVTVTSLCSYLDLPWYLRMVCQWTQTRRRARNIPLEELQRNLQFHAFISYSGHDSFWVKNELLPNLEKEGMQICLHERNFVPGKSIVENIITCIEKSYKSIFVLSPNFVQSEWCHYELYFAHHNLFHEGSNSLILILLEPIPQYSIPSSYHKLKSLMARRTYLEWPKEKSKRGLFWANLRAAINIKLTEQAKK
Sequence (O60603 21-784): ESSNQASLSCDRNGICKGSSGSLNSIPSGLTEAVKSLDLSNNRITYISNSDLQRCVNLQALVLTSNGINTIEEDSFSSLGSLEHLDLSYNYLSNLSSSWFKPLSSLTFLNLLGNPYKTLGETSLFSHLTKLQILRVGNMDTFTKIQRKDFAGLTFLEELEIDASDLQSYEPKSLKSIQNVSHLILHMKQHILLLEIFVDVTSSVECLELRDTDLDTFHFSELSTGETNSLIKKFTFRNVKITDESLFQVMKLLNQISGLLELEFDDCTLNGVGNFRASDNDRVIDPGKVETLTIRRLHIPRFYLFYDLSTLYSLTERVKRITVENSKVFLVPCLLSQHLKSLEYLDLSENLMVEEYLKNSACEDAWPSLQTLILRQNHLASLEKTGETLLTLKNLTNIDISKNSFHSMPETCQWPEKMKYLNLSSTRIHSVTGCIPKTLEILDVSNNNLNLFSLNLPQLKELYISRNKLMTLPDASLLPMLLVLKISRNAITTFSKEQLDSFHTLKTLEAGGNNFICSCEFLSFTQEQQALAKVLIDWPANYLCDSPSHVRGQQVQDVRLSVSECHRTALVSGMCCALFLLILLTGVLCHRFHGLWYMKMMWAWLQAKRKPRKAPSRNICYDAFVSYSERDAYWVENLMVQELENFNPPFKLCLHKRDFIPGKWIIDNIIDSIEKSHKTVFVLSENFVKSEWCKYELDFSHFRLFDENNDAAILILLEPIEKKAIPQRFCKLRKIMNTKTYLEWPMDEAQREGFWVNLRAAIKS
Your answer should be a plain number; it is taken to be in nM.

In the examples that follow, each entry is paired with its recorded EC50.
CC(C)(C)Oc1ccc(C(=O)OCCCCCCCCCCCCNC(=O)[C@@H]2CN(C(=O)c3ccc(C(=O)N4C[C@@H](C(=O)N[C@H]5C[C@@H]5c5ccccc5)[C@H](C(=O)N[C@H]5C[C@@H]5c5ccccc5)C4)cc3)C[C@H]2C(=O)N[C@H]2C[C@@H]2c2ccccc2)cc1 [Compound 76]; 27
CC(C)(C)OC(=O)c1ccc(C(=O)NCCOCCCCCCCCCCCCNC(=O)[C@@H]2CN(C(=O)c3ccc(C(=O)N4C[C@@H](C(=O)N[C@H]5C[C@@H]5c5ccccc5)[C@H](C(=O)N[C@H]5C[C@@H]5c5ccccc5)C4)cc3)C[C@H]2C(=O)N[C@H]2C[C@@H]2c2ccccc2)cc1 [Compound 85]; 13.4
CC(C)(C)OC(=O)C(=O)NCC(=O)OCCCCCCCCCCCCNC(=O)[C@@H]1CN(C(=O)c2ccc(C(=O)N3C[C@@H](C(=O)N[C@H]4C[C@@H]4c4ccccc4)[C@H](C(=O)N[C@H]4C[C@@H]4c4ccccc4)C3)cc2)C[C@H]1C(=O)N[C@H]1C[C@@H]1c1ccccc1 [Compound 83]; 0.54

# next molecule below
Request: Identify measured EC50 corresponding to Nc1ccc(C(=O)OCCCCCCCCCCCCNC(=O)[C@@H]2CN(C(=O)c3ccc(C(=O)N4C[C@@H](C(=O)N[C@H]5C[C@@H]5c5ccccc5)[C@H](C(=O)N[C@H]5C[C@@H]5c5ccccc5)C4)cc3)C[C@H]2C(=O)N[C@H]2C[C@@H]2c2ccccc2)cc1 [Compound 74]
Response: 0.05
